System: KYSE-150 esophageal carcinoma cell line
Experiment: In vitro cell-based assay: cellular proliferation via BrdU incorporation (ELISA)
Set-up: species or system human
Details: Homo sapiens, KYSE-150, 168 hours compound incubation

[
  {
    "compound": "O=C(O)c1ccncc1NCC1OCCc2ccccc21 (centres unmarked) [Example 142]",
    "IC50": "> 10000 nM"
  },
  {
    "compound": "O=C(O)c1ccncc1NC[C@@H]1CCOc2cc(C3(c4ccccc4)CC3)ccc21 [Example 203]",
    "IC50": "100 to 1000 nM"
  },
  {
    "compound": "Cc1ccc(N(C)c2ccc3c(c2)OCC[C@H]3CNc2cnccc2C(=O)O)cc1C [Example 206]",
    "IC50": "≤ 100 nM"
  },
  {
    "compound": "CN(c1ccc(F)cc1)c1ccc2c(c1)CCC[C@H]2CNc1cnccc1C(=O)O [Example 8]",
    "IC50": "≤ 100 nM"
  },
  {
    "compound": "Cc1cc(N(C)c2ccc3c(c2)CCC[C@H]3CNc2cnccc2C(=O)O)no1 [Example 171]",
    "IC50": "> 10000 nM"
  }
]
